Source listed as paper PMC9482650.

# SUBJECT OF TEST: MAGI2_6, Q86UL8
# Sequence (Q86UL8 1141-1229): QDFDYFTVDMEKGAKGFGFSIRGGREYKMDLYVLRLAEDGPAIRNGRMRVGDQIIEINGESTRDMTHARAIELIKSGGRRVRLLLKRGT
# TEST METHOD NOTES: holdup assay
# Parameters: key: below the threshold = too weak to quantify, mostly under pKd 3.1 to 4
# EXPERIMENTAL PARAMETERS: plain residues with an end cap or a label only (N-terminal biotin on a linker: ado-ado)
// values below are reported pKd
METRIC: pKd

| BINDER | METRIC | READOUT VALUE |
| --- | --- | --- |
| VYEVPVETKF [SLC26A3, P40879] | pKd | 4 |
| TNSKQGETTV [FZD1, Q9UP38] | pKd | 4.03 |
| ADEMICITTL [CACNA1D, Q01668] | pKd | 4.85 |
| FLVTEFNVML [DFNB31, Q9P202] | pKd | 4.78 |
| LPPPESESKV [KCNJ9, Q92806] | pKd | 3.48 |
| PALKNGQYWV [CSPG4, Q6UVK1] | pKd | 3.67 |
| ATKDKKITTV [EXOC4, Q96A65] | pKd | 3.72 |
| IQISELETNV [SLC1A7, O00341] | pKd | 4.31 |
| HDDYFYHDEL [RCN2, Q14257] | pKd | 3.9 |
